Reported Residual activity [%] values follow for various binders
- measured_on: T1, VLP2 (virus-like particles of AAV2) (AAV2, UniProt P03135 1-735; P03135 1-598; P03135 1-533)
- T1 construct: Empty AAV2 capsid; background says about 60 protein molecules, VP1:VP2:VP3 = 1:1:10; Immobilised on the ELISA plate
- procedure_text: ELISA on VLP2; binding after pH 3.0 61.0°C 15 min / untreated
# value in %; strip the unit string

Worked examples follow.
binder | units | Residual activity [%]
AAV-binding protein No. 94 (AVR5e + Val326Glu, Asn329His) (receptor) MGSAGESVQITLPKNEEQLHAYVLQEPPKGETCTYDWQLITHPRDYSGEMEGKHSQILKLSKLTPGLYEFKVIVEGQNAHSEGYVNVTVEPEPRKNRPPIAIVSPQFQEISLPTTSTVIDGSQSTDDDKIVQYHWEELKGPLREEKISEDTAILKLSKLVPGNYTFRLTVVDSDGATDSTTANLTVNKAVDHHHHHH | % | 44.9
AAV-binding protein No. 95 (AVR5e + Val326Ala, Lys362Glu) (receptor) MGSAGESVQITLPKNEAQLNAYVLQEPPKGETCTYDWQLITHPRDYSGEMEGEHSQILKLSKLTPGLYEFKVIVEGQNAHSEGYVNVTVEPEPRKNRPPIAIVSPQFQEISLPTTSTVIDGSQSTDDDKIVQYHWEELKGPLREEKISEDTAILKLSKLVPGNYTFRLTVVDSDGATDSTTANLTVNKAVDHHHHHH | % | 45.3

As a next step, examine the binder that follows.
q: Record request: Residual activity [%] value, item AAV-binding protein No. 101 (AVR5e + Val326Glu, Asn329His, Glu378Val) (receptor) MGSAGESVQITLPKNEEQLHAYVLQEPPKGETCTYDWQLITHPRDYSGEMEGKHSQILKLSKLTPGLYVFKVIVEGQNAHSEGYVNVTVEPEPRKNRPPIAIVSPQFQEISLPTTSTVIDGSQSTDDDKIVQYHWEELKGPLREEKISEDTAILKLSKLVPGNYTFRLTVVDSDGATDSTTANLTVNKAVDHHHHHH
a: 48.5
